Provide the reported kon of each item.
Target: T1, Human Angiopoietin-2 full-length (hAng2) (human, UniProt O15123 19-496)
T1 construct: The cell assays used full-length hAng2 from R&D Systems; also called human Ang2; A2
T1 sequence: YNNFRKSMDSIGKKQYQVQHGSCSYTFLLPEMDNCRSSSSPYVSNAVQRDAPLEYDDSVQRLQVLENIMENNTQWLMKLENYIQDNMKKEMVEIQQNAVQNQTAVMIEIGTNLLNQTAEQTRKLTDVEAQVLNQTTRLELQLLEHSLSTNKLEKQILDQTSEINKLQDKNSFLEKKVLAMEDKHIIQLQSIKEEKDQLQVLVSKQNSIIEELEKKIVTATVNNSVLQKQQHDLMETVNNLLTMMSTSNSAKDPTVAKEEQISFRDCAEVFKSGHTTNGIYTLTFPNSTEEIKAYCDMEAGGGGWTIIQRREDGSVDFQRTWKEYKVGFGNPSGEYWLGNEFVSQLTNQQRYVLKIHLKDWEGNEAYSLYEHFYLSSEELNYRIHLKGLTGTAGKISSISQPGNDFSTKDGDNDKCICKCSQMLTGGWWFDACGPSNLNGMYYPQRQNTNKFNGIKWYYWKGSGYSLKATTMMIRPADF
Test: BLI (Octet), antibody fixed on AR2G sensor, hAng2 3.125-50 nM in solution, 1:1 global fit
Give bare numbers, in M⁻¹ s⁻¹.

Recorded results for 2 binders are shown here.
>>> value_measured("humanized anti-Ang2 antibody 2C8H22 (antibody, V domains shown, Full-length human IgG1) VH: QVQLVQSGAEVKKPGASVKVSCKASGYSFTSYWMHWVRQAPGQGLEWIGMIDPSDSETRLNQKFKDRVTMTRDTSTSTVYMELSSLRSEDTAVYYCARRFYYGSDWYFDVWGQGTLVTVSS VL: DIQLTQSPSFLSASVGDRVSITCKASQDVGTAVAWYQQKPGKAPKLLIYWASTRHTGVPDRFSGSGSGTEFTLTISSLQPEDFATYYCQQYSSYPLTFGQGTKVEIK")
59600
>>> value_measured("2C8H11G4 (human IgG4 class antibody of 2C8H11) (antibody, V domains shown, The heavy chain constant region (CH1-hinge-CH2-CH3) was replaced by an IgG4 class constant region; also called 2C8H11-IgG4) VH: QVQLVQSGAEVKKPGASVKVSCKASGYTFTSYWMHWVRQAPGQGLEWMGMIDPSDSETRLNQKFKDRVTMTRDTSTSTVYMELSSLRSEDTAVYYCARRFYYGSDWYFDVWGQGTLVTVSS VL: DIQLTQSPSFLSASVGDRVTITCKASQDVGTAVAWYQQKPGKAPKLLIYWASTRHTGVPSRFSGSGSGTEFTLTISSLQPEDFATYYCQQYSSYPLTFGQGTKVEIK")
415000

Enquiry: Give kon for the following binder: humanized anti-Ang2 antibody 2C8H32 (antibody, V domains shown, Full-length human IgG1) VH: QVQLVQSGAEVKKPGASVKVSCKASGYSFTSYWMHWVRQAPGQGLEWIGMIDPSDSETRLNQKFKDKASMTRDTSTSTVYMELSSLRSEDTAVYYCARRFYYGSDWYFDVWGQGTLVTVSS VL: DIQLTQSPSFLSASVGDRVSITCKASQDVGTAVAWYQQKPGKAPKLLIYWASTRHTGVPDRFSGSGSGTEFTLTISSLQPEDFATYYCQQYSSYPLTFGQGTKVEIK
Return: 75700
